- assayTarget: T1, Avi-tag Fc with human IL-2R beta and IL-2R gamma attached (Acrobiosystems ACRB-ILG-H82F3-25UG) (human, UniProt P14784 27-239; P31785 23-262)
- T1 construct: Bought; attached to the SAX2 biosensor; also called CD122 CD132; IL-2R βγ; not shown: Fc and Avi-tag
- T1 sequence (looked up) 1: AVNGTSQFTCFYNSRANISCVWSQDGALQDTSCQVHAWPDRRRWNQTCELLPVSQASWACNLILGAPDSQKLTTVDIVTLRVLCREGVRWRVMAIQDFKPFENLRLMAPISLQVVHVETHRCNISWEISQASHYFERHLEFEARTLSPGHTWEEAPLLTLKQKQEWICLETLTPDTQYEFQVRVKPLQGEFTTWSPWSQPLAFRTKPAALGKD
- T1 sequence (looked up) 2: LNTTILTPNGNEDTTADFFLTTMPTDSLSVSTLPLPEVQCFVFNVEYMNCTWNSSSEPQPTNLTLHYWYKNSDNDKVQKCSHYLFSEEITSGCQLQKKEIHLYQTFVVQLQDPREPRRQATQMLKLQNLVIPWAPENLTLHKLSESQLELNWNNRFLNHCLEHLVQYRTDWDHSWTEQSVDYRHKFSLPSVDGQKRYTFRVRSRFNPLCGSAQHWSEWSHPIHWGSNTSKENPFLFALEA
- protocolDescription: BLI (Octet R8), receptor on SAX2 sensor
Bridges are numbered along the chain shown (N, C = ends). Primed or numbered codes have the meaning given here. [ ]: non-standard residue; d: D form. Ygp(4) = Tyr with amino-capped PEG8 (O-(8x polyethylene glycol-amino)-tyrosine); Yn3(4) = Tyr with azide-capped PEG9 (O-(9x polyethylene glycol-azido)-tyrosine); Ygp = O-(8x polyethylene glycol-amino)-tyrosine (Tyr, amino-capped PEG8); Yn3 = O-(9x polyethylene glycol-azido)-tyrosine (Tyr, azide-capped PEG9); Ygp″ = O-(8x polyethylene glycol-amino)-tyrosine; Yn3″ = O-(9x polyethylene glycol-azido)-tyrosine; PEG9′ = 9x polyethylene glycol; hSer = N[C@@H](CCO)C(=O)O; Nle = CCCC[C@H](N)C(=O)O
Cut-off 0.001 s⁻¹ on koff: below means Met, at or above means Not met.

* CMP-165, MMP2 cleaved (ligand, also: glutaryl-peptide bridge Ala1 to Lys23 cut by MMP2, site not given here, ring opened, Tested after MMP2 treatment) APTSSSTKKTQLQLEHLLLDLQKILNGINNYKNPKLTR[Nle]L[hSer][Yn3]KF[Ygp][Nle]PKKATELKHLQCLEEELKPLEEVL[hSer]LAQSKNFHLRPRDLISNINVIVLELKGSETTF[hSer]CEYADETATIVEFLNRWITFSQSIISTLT | Not met
* CMP-313 (ligand, not fully specified; ends and bridges not checked; also: Lys23 side chain carries an attached cleavable peptide moiety (structure only in drawing), Synthetic IL-2 polypeptide, tested intact) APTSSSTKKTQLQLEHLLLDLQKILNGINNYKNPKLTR[Nle]L[hSer][Yn3(4)]KF[Ygp(4)][Nle]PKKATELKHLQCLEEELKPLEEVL[hSer]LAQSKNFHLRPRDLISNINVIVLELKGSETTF[hSer]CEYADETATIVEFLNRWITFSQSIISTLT | Not met
* CMP-167, MMP2 cleaved (ligand, ends and bridges not checked; also: MMP2 cleaved, ring opened, cut site and remnants not given here, Tested after MMP2 treatment) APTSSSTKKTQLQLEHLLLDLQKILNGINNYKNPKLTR[Nle]L[hSer][Yn3″]KF[Ygp″][Nle]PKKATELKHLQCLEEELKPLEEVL[hSer]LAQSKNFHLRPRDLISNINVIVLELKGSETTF[hSer]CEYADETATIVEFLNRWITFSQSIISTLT | Met
* CMP-328 (ligand, bridge 9-23; not fully specified (bridges), Synthetic IL-2 polypeptide, tested intact) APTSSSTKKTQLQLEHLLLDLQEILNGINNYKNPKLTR[Nle]L[hSer][Yn3]KF[Ygp][Nle]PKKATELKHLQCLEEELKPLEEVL[hSer]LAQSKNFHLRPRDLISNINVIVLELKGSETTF[hSer]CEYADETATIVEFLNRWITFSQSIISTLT | Not met
* CMP-136 (ligand, bridge N-37; not fully specified (bridges)) [PEG9′]PLGLAG[PEG9′]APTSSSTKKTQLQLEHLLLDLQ[Nle]ILNGIENYKNPKLTR[Nle]L[hSer][Yn3]KF[Ygp][Nle]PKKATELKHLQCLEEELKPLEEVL[hSer]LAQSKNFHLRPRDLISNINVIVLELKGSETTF[hSer]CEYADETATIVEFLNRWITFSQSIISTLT | Not met
* CMP-168 (ligand, bridge 9-23; not fully specified (bridges); ends not checked) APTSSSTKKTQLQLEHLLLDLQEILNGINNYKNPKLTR[Nle]L[hSer][Yn3″]KF[Ygp″][Nle]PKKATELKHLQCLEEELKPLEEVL[hSer]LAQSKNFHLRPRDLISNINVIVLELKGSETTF[hSer]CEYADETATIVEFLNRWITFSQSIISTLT | Not met

Origin of the recorded values: patent US20240376170A1
